system.name: SfurOBP11 (Sogatella furcifera, UniProt V5T6E3)
Sequence (V5T6E3 entry or part of it): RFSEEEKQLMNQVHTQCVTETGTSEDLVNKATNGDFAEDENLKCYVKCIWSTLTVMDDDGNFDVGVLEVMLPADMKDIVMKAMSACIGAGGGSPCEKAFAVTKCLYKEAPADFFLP
measurement.protocol: biochemical
Format: binding
study.conditions: ligand concentration 6, replicate 3
Would you please tag the item 1 when its Fluorescence intensity, fluorescence competitive binding assay, OBP11 is 30000 or above, and 0 when it is below?

Qu. Check the entry `CCCCCCCCCCCCO` : does Fluorescence intensity, fluorescence competitive binding assay, OBP11 equal or exceed 30000?
Ans. 0

###

system.name: SfurOBP2 (Sogatella furcifera, UniProt V5T759)
Sequence (V5T759 entry or part of it): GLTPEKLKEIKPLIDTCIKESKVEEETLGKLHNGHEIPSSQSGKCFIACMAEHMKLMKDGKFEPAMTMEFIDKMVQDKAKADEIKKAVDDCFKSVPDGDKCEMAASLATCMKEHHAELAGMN
measurement.protocol: biochemical
Type: binding
study.conditions: ligand concentration 16 (unit not given), replicate column 2 of 3
property.label: Fluorescence competitive binding assay, OBP2 (raw fluorescence reading)
Give bare numbers.

molecule	system.name	measurement
CC(C)COC(=O)CCCCC(=O)OCC(C)C [DA(diisobutyl adipate)]	SfurOBP2 (Sogatella furcifera, UniProt V5T759)	14484
CCCCCC=O	SfurOBP2 (Sogatella furcifera, UniProt V5T759)	13446
CCCCCCCCCCCCCCCC(=O)OC [MH(methyl hexadecanoate)]	SfurOBP2 (Sogatella furcifera, UniProt V5T759)	53371
OC1CCCCC1	SfurOBP2 (Sogatella furcifera, UniProt V5T759)	13071
C=C/C(C)=C/C/C=C(\C)CCC=C(C)C	SfurOBP2 (Sogatella furcifera, UniProt V5T759)	19263

Okay, here is my list. What is Fluorescence competitive binding assay, OBP2 (raw fluorescence reading) for each of these?
1. CCCCCCC=CCO
2. CC/C=C\CCO [(Z)-3-hexenol]
3. CCCCCCCC=O
4. CC1=CC[C@@H](C(C)(C)O)CC1

Ans.
[16681, 12294, 17600, 13018]
